tested on: Matricaria inodora (MATIN); assay: Pre-emergence herbicidal action against MATIN; format: in vivo; conditions: dosage 320 g/ha
# Pre-emergence action against MATIN in % listing for each entry below

[
  {
    "Compound": "CCOC(=O)CCNC(=O)CSc1nn(-c2ccccn2)c(-c2cncc(F)c2)c1Br [Example I-82]",
    "Pre-emergence action against MATIN in %": "90%"
  },
  {
    "Compound": "O=C(O)COc1nn(-c2ccccn2)c(-c2ccc(F)nc2)c1Cl [Example I-98]",
    "Pre-emergence action against MATIN in %": "90%"
  },
  {
    "Compound": "COC(=O)C(C)NC(=O)[C@@H](C)Oc1nn(-c2ccccn2)c(-c2cncc(F)c2)c1Cl (some centres unmarked) [Example I-199]",
    "Pre-emergence action against MATIN in %": "100%"
  },
  {
    "Compound": "O=C(O)COc1nn(-c2ncccc2F)c(-c2ccc(F)nc2)c1Br [Example I-08]",
    "Pre-emergence action against MATIN in %": "100%"
  },
  {
    "Compound": "COC(=O)CCOC(=O)COc1nn(-c2ccccn2)c(-c2ccc(F)nc2)c1F [Example I-309]",
    "Pre-emergence action against MATIN in %": "90%"
  },
  {
    "Compound": "COC(=O)COc1nn(-c2ncccc2C(F)(F)F)c(-c2cncc(F)c2)c1Br [Example I-206]",
    "Pre-emergence action against MATIN in %": "90%"
  },
  {
    "Compound": "CC(Oc1nn(-c2ccccn2)c(-c2ccc(F)nc2)c1C(F)(F)F)C(=O)O (centres unmarked) [Example I-94]",
    "Pre-emergence action against MATIN in %": "100%"
  },
  {
    "Compound": "CCOC(=O)COc1nn(-c2ncccc2F)c(-c2ccc(F)nc2)c1Br [Example I-51]",
    "Pre-emergence action against MATIN in %": "90%"
  },
  {
    "Compound": "COC(=O)CCOC(=O)COc1nn(-c2ncccc2C(F)(F)F)c(-c2cncc(F)c2)c1Br [Example I-160]",
    "Pre-emergence action against MATIN in %": "80%"
  },
  {
    "Compound": "COCCOC(=O)COc1nn(-c2ncccc2C)c(-c2cncc(F)c2)c1Br [Example I-212]",
    "Pre-emergence action against MATIN in %": "90%"
  },
  {
    "Compound": "COC(=O)CCOC(=O)COc1nn(-c2ccccn2)c(-c2ccc(F)nc2)c1Cl [Example I-88]",
    "Pre-emergence action against MATIN in %": "90%"
  },
  {
    "Compound": "COC(=O)COc1nn(-c2ncccc2F)c(-c2ccc(F)nc2)c1C1CC1 [Example I-42]",
    "Pre-emergence action against MATIN in %": "100%"
  },
  {
    "Compound": "C[C@@H](Oc1nn(-c2ccc(F)cn2)c(-c2cncc(F)c2)c1Br)C(=O)O [Example I-13]",
    "Pre-emergence action against MATIN in %": "80%"
  },
  {
    "Compound": "O=C(COc1nn(-c2ccccn2)c(-c2ccc(F)nc2)c1Br)OCC1CCCO1 (centres unmarked) [Example I-93]",
    "Pre-emergence action against MATIN in %": "100%"
  },
  {
    "Compound": "CCOC(=O)COc1nn(-c2ccccn2)c(-c2ccc(F)nc2)c1[N+](=O)[O-] [Example I-359]",
    "Pre-emergence action against MATIN in %": "90%"
  },
  {
    "Compound": "COC(=O)[C@@H](C)Oc1nn(-c2ncccc2F)c(-c2cccnc2)c1C#N [Example I-04]",
    "Pre-emergence action against MATIN in %": "90%"
  },
  {
    "Compound": "CCOC(=O)COc1nn(-c2ccccn2)c(-c2ccc(F)nc2)c1Cl [Example I-85]",
    "Pre-emergence action against MATIN in %": "100%"
  }
]
